Just for reference, patent US20220017630A1 is where these values come from.

Reported values of kon for individual entries
# system-under-test: T1, cynomolgus TNFR2 (Sino 90102-C08H) (cynomolgus, UniProt A0A2K5VET2 132-366)
# T1 construct: also called CynoTNFR2 (His tag)
# T1 sequence: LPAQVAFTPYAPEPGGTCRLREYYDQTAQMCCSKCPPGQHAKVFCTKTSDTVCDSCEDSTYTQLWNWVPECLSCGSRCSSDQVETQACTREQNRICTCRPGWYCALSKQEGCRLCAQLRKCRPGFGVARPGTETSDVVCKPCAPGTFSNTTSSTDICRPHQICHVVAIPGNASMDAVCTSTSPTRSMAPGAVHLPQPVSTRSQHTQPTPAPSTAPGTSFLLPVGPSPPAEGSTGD
# assay-notes: SPR Biacore, antibody on Protein A chip, TNFR2 analyte
Report only the number, with the unit M⁻¹ s⁻¹ understood.

Guide cases for kon, answers given:
{"columns": ["binder", "measured-value"],
 "data": [
  ["TNFR2 antibody #352 (antibody, V domains shown) VH: EVQLQESGPGLVAPSQSLSITCTVSGFSLTSYGVHWVRQPPGKGLEWLVVIWSDGGTTYNSALKSRLSISKDNSKSQVFLKMNSLQTDDTAMYYCARHDDDGYYAMDYWGQGTTVTVSS VL: DIVLTQSPSLMSASPGEKVTMTCSASSSVGYMYWYQQKPRSSPKPWIYLTSNLASGVPARFSGSGSGTSYSLTISSMEVEDAATYYCQQWSSDPFTFGSGTKLEIK", "2.57e+06"],
  ["TNFR2 antibody #001 (antibody, V domains shown, also called antibody #1) VH: EVQLQESGGGLVQPGGSLNLSCAASGFAFSTYDLSWVRQTPEKRLEWVAYINNGGISTYYSDTVKGRFTISRDNAKNTLYLQMSSLKSEDTAMYYCVRGPFYGSANYFDYWGQGTTVTVSS VL: EIVMTQSPASLSLSVGETVTITCRTSESIYSNLPWYQQKQGKSPQLLVYDATKLAEGVPSRFSGSESGTQYSLKINSLQSEDFGTYYCQHFWVTPWTFGGGTKLEIK", 662000],
  ["TNFR2 antibody #088 (antibody, V domains shown) VH: EVQLQESGGGLVQPGGSLNLSCAASGFAFSTYDLSWVRQTPGKRLEWVAYINNGGISTYYSDTVKGRFTITRDNAKNTLYLQMSSLKSEDTAMYYCVRGPFYGSANYFDYWGQGTTVTVSS VL: DILMTQSPASLSLFVGETVTITCRASENIYSNLAWYQQKQGKSPQLLVYDATKLAEGVPSRFSGSESGTQYSLKINSLQSEDFGTYYCQHFWVTPWTFGGGTKLEIK", 601000]
]}

The reported value for TNFR2 antibody #125 (antibody, V domains shown) VH: EVQLQESGGGLVQPGGSLNLSCAASGFAFSIYDLSWVRQTPEKRLEWVAYINNGGISTYYSDTVKGRFTISRDNAKNTLYLQMSSLKSEDTAMYYCVRGPFYGSANYFDYWGQGTTVTVSS VL: DIQMTQSPASLSLSVGETVTITCRASENIYSNLAWYQQKQGKSPQLLVYDATKLAEGVPSRFSGSESGTQYSLKINSLQSEDFGTYYCQHFWVTPWTFGGGTKLEIK in terms of kon is 1.02e+06

The binder identified as TNFR2 antibody #219 (antibody, V domains shown) VH: EVQLQESGAELVRPGASVKLSCKASGYSFTNYWMNWVKQRPGQGLEWIGMIHPSDTETRLNQNFKDKATLTVDKSSSTSYMQLSSPTSEDSAVYYCARGEGLGAARSVSMDYWGQGTTVTVSS VL: DILMTQSPSSLSASLGDRVTISCRASQDISNYLNWYQQKPDGTVKVLIYYTAILHSGVPSRFSGSGSGTDYSLTISNLEQEDIATYFCQQGNTLPWTFGGGTKLEIK registered its kon at 558000
